Target: σ2 receptor (Rattus norvegicus)
Sequence (Q5U3Y7 1-176): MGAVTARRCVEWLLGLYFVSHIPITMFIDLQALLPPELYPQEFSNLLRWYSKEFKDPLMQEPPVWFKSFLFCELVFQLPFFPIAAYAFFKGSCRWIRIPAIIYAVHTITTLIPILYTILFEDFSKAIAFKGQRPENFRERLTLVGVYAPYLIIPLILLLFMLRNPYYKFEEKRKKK
Type: binding
Details: relative to nonsubstituted 1H-[1,2,3]triazole carboxamide analogue 26
I'd appreciate it if you could supply increase of selectivity for σ2 compared to 26 values for the items below.
Numbers only here, please. The scale is fold.

Lab note: measured increase of selectivity for σ2 compared to 26 of COc1cccc(-n2cc(C(=O)NCCCCN3CCc4cc(OC)c(OC)cc4C3)nn2)c1 [24e] was 629

Lookup result for COc1cccc(Cn2cc(C(=O)NCCCCN3CCc4cc(OC)c(OC)cc4C3)nn2)c1 [39b] ; measured increase of selectivity for σ2 compared to 26: 110

Consider COc1cc2c(cc1OC)CN(CCCCNC(=O)c1cn(-c3ccccc3OC)nn1)CC2 [24d] . Its measured increase of selectivity for σ2 compared to 26 is 817

Short answer for COc1ccc(Cn2cc(C(=O)NCCCCN3CCc4cc(OC)c(OC)cc4C3)nn2)cc1 [39c] : increase of selectivity for σ2 compared to 26 was 63

Documented increase of selectivity for σ2 compared to 26 of COc1cc2c(cc1OC)CN(CCCCNC(=O)c1cn(Cc3ccccc3)nn1)CC2 [39d] : 34

The recorded increase of selectivity for σ2 compared to 26 for entry COc1ccccc1Cn1cc(C(=O)NCCCCN2CCc3cc(OC)c(OC)cc3C2)nn1 [39a] equals 198

Reference for the values: paper PMC6818095
